Each item that follows carries a reported growth inhibition.
- assay.overview: NCI Yeast Anticancer Drug Screen. Data for the rad50 strain (AID 155);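 also: 0% = growth of vehicle-only cultures of the same strain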
- condition.summary: S. cerevisiae rad50 strain growth inhibition; at 50.0 µM; hits give high values
This is part of a sample that, as a whole, favours compounds with a hit. Of some 79,000 tested, about 15% had one in any assay.
reported.property: growth inhibition (%)

compound=O=c1c2c([nH]c(=S)n1-c1ccccc1)NCCC2 reported_property="growth inhibition" test_value=-13.8
compound=O/N=C1\CC2(N3CCOCC3)CCC1(c1ccccc1)CC2 reported_property="growth inhibition" test_value=11.5
compound=O=C(NNC(=S)Nc1ccccc1)C12CC3CC(CC(C3)C1)C2 reported_property="growth inhibition" test_value=-12
compound=CC(C)(C)c1cc2c(OP(c3ccccc3)c3ccccc3)c(c1)Cc1cc(C(C)(C)C)cc(c1OP(c1ccccc1)c1ccccc1)Cc1cc(C(C)(C)C)cc(c1OP(c1ccccc1)c1ccccc1)Cc1cc(C(C)(C)C)cc(c1OP(c1ccccc1)c1ccccc1)C2 reported_property="growth inhibition" test_value=-11.8
compound="CC(NC(=O)CNC(=O)CN)C(N)=O (configuration not stated)" reported_property="growth inhibition" test_value=-23.9
compound="CC(=O)CC(=O)NC(C)c1ccccc1 (configuration not stated)" reported_property="growth inhibition" test_value=-4.05
compound=COc1cc(-c2cc(OC)c(N)cc2Br)c(Br)cc1N reported_property="growth inhibition" test_value=38.8
compound=O=S(=O)(Nc1ccc(NS(=O)(=O)c2ccccc2)nc1)c1ccccc1 reported_property="growth inhibition" test_value=13.8
compound=CSc1ccc(NC(=O)Nc2ccc(Cl)cc2C(=O)c2ccccc2)cc1 reported_property="growth inhibition" test_value=96.5
compound=CCOC(=O)c1[nH]c(C(=O)O)c(C(=O)OCC)c1C reported_property="growth inhibition" test_value=7.3
compound="CCC(C)CC(C)C1=NC(C)(C)CC(C)O1 (configuration not stated)" reported_property="growth inhibition" test_value=3.65
compound=CC(=O)OC/C=C/CN(C)C reported_property="growth inhibition" test_value=9.3
compound=CC(C)(NC(=O)OCc1ccccc1)C(=O)OC(=O)C(C)(C)NC(=O)OCc1ccccc1 reported_property="growth inhibition" test_value=-15.9
compound=O=C(NNC(=O)c1ccc2ccccc2c1)c1cccc(Br)c1 reported_property="growth inhibition" test_value=-21.1
compound=COc1ccc(C(=O)C(c2ccc(OCc3ccccc3)cc2)c2ccc(OCc3ccccc3)cc2)cc1 reported_property="growth inhibition" test_value=5.4
compound=O=C1OC(=O)C(c2ccccc2)=C1c1ccccc1 reported_property="growth inhibition" test_value=10.6
compound=O=C(OCCCl)Oc1c(Cl)cc([N+](=O)[O-])cc1[N+](=O)[O-] reported_property="growth inhibition" test_value=99.6
compound=CC(C)CCOC(=O)NC1c2ccccc2Oc2ccccc21 reported_property="growth inhibition" test_value=-10
compound=COC(=O)C[C@H]1CCC2(OCCO2)[C@]1(C)C(=O)OC reported_property="growth inhibition" test_value=-10.7
compound=Cc1ccc(S(=O)(=O)N2CCCN(S(=O)(=O)c3ccc(C)cc3)COC2)cc1 reported_property="growth inhibition" test_value=4.1
compound="OC1CC2CCCCC2CC1C1CCCCC1 (configuration not stated)" reported_property="growth inhibition" test_value=4.15
compound="Cc1nn(C(=O)c2ccncc2)c2c1C(c1cccc([N+](=O)[O-])c1)SC(N)=N2 (configuration not stated)" reported_property="growth inhibition" test_value=-55.5
